- System: HepG2
- procedure-text: Anticancer activity against human HepG2 cells after 72 hrs by MTT assay
- Assay type: functional, cell-based
- test-conditions: HepG2, 72 h
assay-metric: IC50

IC50 for `O=c1c2c3c(sc2ncn1Cc1ccc(Br)cc1)CCC=C3` is 15 µM

* * *

- procedure-text: Anticancer activity against human […] cells after 72 hrs by MTT assay
- Format: functional, cell-based
assay-metric: IC50 (µM)
Answers are plain numbers, in µM.

`O=c1c2c3c(sc2ncn1Cc1ccc(Br)cc1)CCC=C3` has a reported IC50 of 45
